Test system: stomach secretion
run-description: Inhibition of stomach secretion (volume and hydrochloric acid) in rats
Format: in vivo, rat
study-conditions: 4 hours after administration of the antiulcerogenic ED50; volume
result-type: % inhibition of stomach secretion in rats, volume (%)

compound: CN1CCN(CC(=O)N2c3ccccc3N(C)C(=O)c3cnc(-c4ccccc4)nc32)CC1 [Compound 3]
measured-target: stomach secretion
unit-tag: %
endpoint-result: 7
//
compound: CN1C(=O)c2cnc(-c3ccccc3)nc2N(C(=O)CN2CCCCC2)c2ccccc21 [Compound 4]
measured-target: stomach secretion
unit-tag: %
endpoint-result: 32
//
compound: CN1CCN(CC(=O)N2c3ccccc3NC(=O)c3cncnc32)CC1 [Compound 2]
measured-target: stomach secretion
unit-tag: %
endpoint-result: 10
//
compound: CC1(C)[C@@H](OC(=O)CCC(=O)O)CC[C@]2(C)[C@H]3C(=O)C=C4[C@@H]5C[C@@](C)(C(=O)O)CC[C@]5(C)CC[C@@]4(C)[C@]3(C)CC[C@@H]12 [Compound 1, Carbenoxolone, reference compound]
measured-target: stomach secretion
unit-tag: %
endpoint-result: 7
